Target: T1, P6-AA-1HAA-S
T1 chain: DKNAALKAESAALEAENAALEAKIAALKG
Assay: two-hybrid library CCmax;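 also: natural log of median RNA to DNA barcode read ratio; higher means stronger binding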
Conditions: mean of both orientations
# key: entry, value: interaction score

// worked examples, interaction score included
Problem: GET /values?readout=interaction score&item= DENAALEAKHAALKAKNAALKAEIAALEG [P5-AA-1HAA-H]
Solution: 0.88

Problem: GET /values?readout=interaction score&item= DENAALEAKKAALKAKNAALKAEIAALEG [P5-AA-1HAA-K]
Solution: 0.0853

Problem: GET /values?readout=interaction score&item= DENAALEAKYAALKAKNAALKAEIAALEG [P5-AA-1HAA-Y]
Solution: 1.55

Problem: GET /values?readout=interaction score&item= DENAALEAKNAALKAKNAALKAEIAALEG [P5-AA-1HAA-N]
Solution: 1.15

Problem: GET /values?readout=interaction score&item= DENAALEAKSAALKAKNAALKAEIAALEG [P5-AA-1HAA-S]
Solution: -0.742

Further cases:
Problem: GET /values?readout=interaction score&item= DENAALEAKAAALKAKNAALKAEIAALEG [P5-AA-1HAA-A]
Solution: -0.02

Problem: GET /values?readout=interaction score&item= DENAALEAKLAALKAKNAALKAEIAALEG [P5-AA-1HAA-L]
Solution: 1.85

Problem: GET /values?readout=interaction score&item= DENAALEAKTAALKAKNAALKAEIAALEG [P5-AA-1HAA-T]
Solution: 0.78

Problem: GET /values?readout=interaction score&item= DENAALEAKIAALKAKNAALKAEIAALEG [4H1401-AA]
Solution: 1.9

Problem: GET /values?readout=interaction score&item= DENAALEAKEAALKAKNAALKAEIAALEG [P5-AA-1HAA-E]
Solution: -1.13

Problem: GET /values?readout=interaction score&item= DENAALEAKDAALKAKNAALKAEIAALEG [P5-AA-1HAA-D]
Solution: -1.34

Problem: GET /values?readout=interaction score&item= DENAALEAKVAALKAKNAALKAEIAALEG [P5-AA-1HAA-V]
Solution: 1.53

Problem: GET /values?readout=interaction score&item= DENAALEAKRAALKAKNAALKAEIAALEG [P5-AA-1HAA-R]
Solution: 0.434
